- Method Summary: Spectral (photophysical) properties of representative derivatives in DCM at room temperature
- Assay type: physicochemical
- Design: unit not given here
- Setup Conditions: DCM, RM, 10−5M
Please enter Satisfied where τf (fluorescent lifetime) is greater than or equal to 2, and Not satisfied where it is lower.

Q. Please tell me: is the compound F[B-](F)(F)F.c1ccc(-c2oc3cccc4[n+]3c2-c2ccccc2-4)cc1 at or over 2 in terms of τf (fluorescent lifetime)?
A. Not satisfied

Q. Repeat for the following compound: F[B-](F)(F)F.c1ccc2c(c1)-c1cccc3oc(-c4cc5ccccc5c5ccccc45)c-2[n+]13
A. Satisfied

Q. Repeat for the following compound: Clc1ccc(-c2oc3cccc4[n+]3c2-c2ccccc2-4)cc1.F[B-](F)(F)F
A. Not satisfied

Q. Repeat for the following compound: F[B-](F)(F)F.c1ccc2c(c1)-c1cccc3oc(-c4ccc5ccccc5c4)c-2[n+]13
A. Satisfied

Q. Repeat for the following compound: F[B-](F)(F)F.Fc1ccc(-c2oc3cccc4[n+]3c2-c2ccccc2-4)cc1
A. Not satisfied

Q. Repeat for the following compound: CN(C)c1ccc(-c2oc3cccc4[n+]3c2-c2ccccc2-4)cc1.F[B-](F)(F)F
A. Satisfied

Q. Repeat for the following compound: COc1ccc(-c2oc3cccc4[n+]3c2-c2ccccc2-4)cc1.F[B-](F)(F)F
A. Satisfied
